assay: Plasma and ocular tissue drug concentration after topical eye drops; format: in vivo, Norway Brown rats; settings: female, Norway Brown, rat, topical, 30 μl (5 mg/ml) per drop, three drops over 24 hours; 30 μl drops to left eye only, three times over 24 hours; 5 hours after third drop; read-out: pazopanib in eye cup tissues (sclera, choroid, retina), treated eye (OS), mean
Quantity: concentration at 5 hours after third drop (ng/g)

INSERT INTO measurements (sample_smiles, endpoint_result) VALUES
  ('Cc1ccc(Nc2nccc(N(C)c3ccc4c(C)n(C)nc4c3)n2)cc1S(N)(=O)=O', 503);

* * *

assay: Plasma and ocular tissue drug concentration after topical eye drops; assay type: in vivo, Norway Brown rats; details: female, Norway Brown, rat, eye cup tissues of the fellow non-treated eye (OD), topical, 30 μl (5 mg/ml) per drop, three drops over 24 hours; 30 μl drops to left eye only, three times over 24 hours; 5 hours after third drop; read-out: pazopanib in eye cup tissues, fellow non-treated eye (OD), mean
Quantity: concentration at 5 hours after third drop (ng/g)

INSERT INTO measurements (sample_smiles, endpoint_result) VALUES
  ('Cc1ccc(Nc2nccc(N(C)c3ccc4c(C)n(C)nc4c3)n2)cc1S(N)(=O)=O', 159);
